ASSAY_SYSTEM: TLR7 (Homo sapiens)
Sequence (Q9NYK1 27-1049): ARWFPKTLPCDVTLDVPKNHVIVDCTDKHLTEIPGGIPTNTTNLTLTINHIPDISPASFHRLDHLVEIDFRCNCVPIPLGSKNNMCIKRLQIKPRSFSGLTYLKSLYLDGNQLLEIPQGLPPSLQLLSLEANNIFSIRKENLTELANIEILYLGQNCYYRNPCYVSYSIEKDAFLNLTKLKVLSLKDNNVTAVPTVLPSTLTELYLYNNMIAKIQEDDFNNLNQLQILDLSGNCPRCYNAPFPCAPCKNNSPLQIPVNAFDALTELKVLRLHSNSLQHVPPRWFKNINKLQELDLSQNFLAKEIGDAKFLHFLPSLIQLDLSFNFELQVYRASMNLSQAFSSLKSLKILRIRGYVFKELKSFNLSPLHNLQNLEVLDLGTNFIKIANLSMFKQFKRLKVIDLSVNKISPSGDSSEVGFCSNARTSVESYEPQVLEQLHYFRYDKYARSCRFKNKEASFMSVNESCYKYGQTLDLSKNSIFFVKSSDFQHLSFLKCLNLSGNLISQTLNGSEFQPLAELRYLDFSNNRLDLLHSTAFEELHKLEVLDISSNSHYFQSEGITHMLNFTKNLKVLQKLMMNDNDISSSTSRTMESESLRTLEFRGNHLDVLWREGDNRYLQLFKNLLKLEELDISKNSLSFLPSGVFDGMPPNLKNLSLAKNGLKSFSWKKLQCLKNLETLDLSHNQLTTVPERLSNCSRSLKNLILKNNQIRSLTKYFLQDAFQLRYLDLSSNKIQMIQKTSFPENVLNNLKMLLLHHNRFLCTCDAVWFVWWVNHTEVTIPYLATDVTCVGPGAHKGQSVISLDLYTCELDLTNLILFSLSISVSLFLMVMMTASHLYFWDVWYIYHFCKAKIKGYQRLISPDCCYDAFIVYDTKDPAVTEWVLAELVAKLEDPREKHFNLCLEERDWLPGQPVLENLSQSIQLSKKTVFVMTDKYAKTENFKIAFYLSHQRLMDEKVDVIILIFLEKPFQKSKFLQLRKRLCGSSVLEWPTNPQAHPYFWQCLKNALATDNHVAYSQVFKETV
ASSAY_NAME: Human whole blood assay, TLR7-specific agonist stimulation, IL-6 by AlphaLISA
Assay type: cell-based
Design: Human whole blood from healthy donors was drawn into EDTA Vacutainer tubes; endogenous in cells; host or cells: human whole blood (healthy donors)
CONDITION_SET: TLR7-specific agonist 3 µM, IL-6 readout, read-out: IC50 TLR7 (IL6 READOUT) HUMAN WHOLE BLOOD (N=2)
READOUT: IC50 (nM)

[
  {
    "MOLECULE": "CCN(CCO)CCCC(C)Nc1ccnc2cc(Cl)ccc12 (stereo not drawn) [HYDROXY-CHLOROQUINE HCQ, hydroxychloroquine]",
    "REPORTED_VALUE": 960
  },
  {
    "MOLECULE": "COc1ccc2nc3cc(Cl)ccc3c(Nc3cc(CN4CCCC4)c(O)c(CN4CCCC4)c3)c2n1",
    "REPORTED_VALUE": 210
  },
  {
    "MOLECULE": "CCN(CC)CCCC(C)Nc1ccnc2cc(Cl)ccc12 (stereo not drawn)",
    "REPORTED_VALUE": 2280
  }
]
